Kindly state GI50 for each of the entries shown.
- Test system: SF-268
- experimental protocol: NCI tumour cell line growth inhibition, 48 h
Activity calls are given as the source filed them. Rule as the data show it: active = GI50 up to about 1.1 µM and inactive = higher.

State the recorded GI50 for this entry: CC(C)=C1CCC(CN2CCCC2)C1=O (stereo not given)
33.8 µM (inactive)

Consider next the compound BrCCC[P+](c1ccccc1)(c1ccccc1)c1ccccc1 in the same way.
16.7 µM (inactive)

Consider next the compound COc1ccccc1NS(=O)(=O)c1ccc2ncn(NS(=O)(=O)c3ccc(Cl)cc3)c(=O)c2c1 in the same way.
> 100 µM (inactive)

Consider next the compound CC(=O)C(=[N+]=[N-])C(=O)N(C)CCC#N in the same way.
> 10 µM (inactive)

Consider next the compound Cc1cc(NCCCCCCNc2cc(C)nc3ccc(Cl)cc23)c2cc(Cl)ccc2n1 in the same way.
14.7 µM (inactive)

Consider next the compound C=CC1(CBr)CCC(C(C)(C)Br)O1 (stereo not given) in the same way.
15.7 µM (inactive)

Consider next the compound C=CCOCn1ccc(N)nc1=O in the same way.
> 100 µM (inactive)

Consider next the compound COC(=O)/C=c1/c2ccccc2n2nc3ccccc3c12 in the same way.
49.9 µM (inactive)

Consider next the compound CCCc1c(C(=O)OCC)[nH]c(C(=O)CCC(=O)c2[nH]c(C(=O)OCC)c(CCC)c2C(=O)OCC)c1C(=O)OCC in the same way.
> 100 µM (inactive)

Consider next the compound CC12CC3(O)OC(O1)C1(COC(=O)c4ccccc4)C3CC21OC1OC(CO)C(O)C(O)C1O (stereo not given) in the same way.
> 100 µM (inactive)

Consider next the compound CCCCCCc1cc2cc(-c3cn4ccccc4n3)c(=O)oc2cc1O in the same way.
2.32 µM (inactive)

Consider next the compound O=C(Nc1cccc2nsnc12)c1cc2c(cc1Cl)Sc1nccn1S2(=O)=O in the same way.
3.62 µM (inactive)

Consider next the compound COc1ccc2nccc(C3OC(=O)N4CCC(=O)CC34)c2c1 (stereo not given) in the same way.
> 100 µM (inactive)

Consider next the compound CCOC1=NC(C(F)(F)F)(C(F)(F)F)N=C(N2CCCCC2)O1 in the same way.
> 100 µM (inactive)

Consider next the compound CCc1c(CNC2=NCCN2)c(CC)c(CNC2=NCCN2)c(CC)c1CNC1=NCCN1 in the same way.
> 100 µM (inactive)

----------
- System: NCI-H23
- experimental protocol: NCI tumour cell line growth inhibition, 48 h
Active and inactive are the calls of the source. Rule as the data show it: active = GI50 up to about 1.1 µM and inactive = higher.
Kindly state GI50 for each of the entries shown.

State the recorded GI50 for this entry: COC(=O)c1cc2ccc(O)c(O)c2cn1
15.7 µM (inactive)

Consider next the molecule Cc1sc2nc3n(c(=O)c2c1C)N=C(c1ccc([N+](=O)[O-])cc1)CS3 in the same way.
> 100 µM (inactive)

Consider next the molecule Nc1ncnc2c1ncn2C1OC(CO)C2OC21 (stereo unspecified) in the same way.
> 100 µM (inactive)

Consider next the molecule CC(=O)c1nc2ccccc2n1CC(=O)c1ccc(Cl)cc1 in the same way.
7.64 µM (inactive)

Consider next the molecule N=C1C(O)C2(I)c3ccccc3N3C(=N)C(O)C4c5ccccc5N1C4C32 (stereo unspecified) in the same way.
35.6 µM (inactive)

Consider next the molecule CCCC(=O)OC1C(C(O)CO)OC2OC(C)(C)OC21 (stereo unspecified) in the same way.
> 100 µM (inactive)

Consider next the molecule Cc1cc(NCCCCCCNc2cc(C)nc3ccc(Cl)cc23)c2cc(Cl)ccc2n1 in the same way.
15 µM (inactive)

Consider next the molecule CC12CC(Sc3ccccc3N1)c1ccccc1O2 (stereo unspecified) in the same way.
15.7 µM (inactive)

Consider next the molecule Cc1nc2c(O)c3c(c(O)c2nc1C)C1C=CC3CC1 in the same way.
5.86 µM (inactive)

Consider next the molecule c1ccc2c(c1)OCCc1cn[nH]c1-2 in the same way.
> 100 µM (inactive)

Consider next the molecule COc1ccc(C#Cn2nnc3ccccc32)cc1 in the same way.
> 100 µM (inactive)

Consider next the molecule C[C@@H]1C[C@H]2OC(=O)[C@@]3(C)CCC[C@@](C)([C@@H]23)[C@@]1(O)CCc1ccoc1 in the same way.
> 77.8 µM (inactive)

Consider next the molecule O=C(OC1C(Oc2ccccc2COC(=O)C2(O)C=CCCC2=O)OC(CO)C(O)C1O)c1ccccc1 (stereo unspecified) in the same way.
26.4 µM (inactive)

Consider next the molecule CCOc1cn(C2CC(O)C(CO)O2)c(=O)[nH]c1=O (stereo unspecified) in the same way.
> 100 µM (inactive)

Consider next the molecule CC1=C(O)C(O)=C(C2=C(O)C(O)=C(C)C(=O)C2=O)C(=O)C1=O in the same way.
40.7 µM (inactive)

Consider next the molecule NS(=O)(=O)c1ccc(NC(=O)c2cc([N+](=O)[O-])cc([N+](=O)[O-])c2)cc1 in the same way.
41.4 µM (inactive)

Consider next the molecule CN(C)CCC(=O)N1CCc2c([nH]c3ccccc23)C1c1cccnc1 (stereo unspecified) in the same way.
> 100 µM (inactive)

Consider next the molecule N#Cc1ccc(/N=C(/NCC(=O)O)Nc2cccc3ccccc23)cc1 in the same way.
> 10 µM (inactive)

Consider next the molecule OC1[C@@H]2[C@@H](O)CCCN2C[C@@H](O)[C@H]1O (stereo partly specified) in the same way.
> 100 µM (inactive)

Consider next the molecule CC(=O)c1cccc(N2COC(C)(C)c3nc4ccccc4n3C2)c1 in the same way.
> 100 µM (inactive)

Consider next the molecule N#CCc1ccc(/C(C#N)=C2/OC(=N)C(c3ccc(CC#N)cc3)C2=O)cc1 (stereo unspecified) in the same way.
> 100 µM (inactive)

----------
Assay system HCT-15; read-out recorded as GI50.
# number only, unit µM dropped from output

State the recorded GI50 for this entry: COC(=O)c1ccc(NCC2=CC(=O)C=CC2=O)cc1
12.5

Consider next the compound C/C(=N\c1ccc(N(C)C)cc1)c1ccccc1 in the same way.
18.5

Consider next the compound Cc1ccc2c3ccc4c(c3n(C)c2c1)C(=O)C=CC4=O in the same way.
4.6

Consider next the compound Nc1nc2c(C(=O)O)c3ccc([N+](=O)[O-])cc3c(=O)n2c2ccccc12 in the same way.
22.9

Consider next the compound C/C(=N\Nc1nc2ccccc2o1)c1cc(C)ncn1 in the same way.
0.043

----------
- Tested on: IGROV-1
- experimental protocol: NCI tumour cell line growth inhibition, 48 h
The source made the active and inactive calls. No stated cut-off is given here; in the data, active = GI50 up to about 1.1 µM and inactive = higher.
Outcomes you can answer with include only these: active, inactive

Any idea what this test logged for COc1cc(/C=C2/Oc3c(OC)cccc3C2=O)ccc1O ?
inactive

Consider next the compound c1ccc2c(c1)OCCc1cn[nH]c1-2 in the same way.
inactive

Consider next the compound Cc1cccc2nc3cccc(C(=O)NCCN(C)C)c3nc12 in the same way.
active

Consider next the compound Cc1ccc(S(=O)(=O)Oc2nc3ccccc3nc2OS(=O)(=O)c2ccc(C)cc2)cc1 in the same way.
inactive

Consider next the compound CCc1nc(Cl)c(Cl)c(Cl)n1 in the same way.
inactive

Consider next the compound O=C(O)CSc1n[nH]c(=O)[nH]c1=O in the same way.
inactive

Consider next the compound CC(=O)c1nc2ccccc2n1CC(=O)c1ccc(Cl)cc1 in the same way.
inactive

Consider next the compound C[C@]12CC[C@@H]3c4ccc(OCCN5CCCC5)cc4CC[C@H]3[C@@H]1CCC2=O in the same way.
inactive

Consider next the compound CN(C)CC/C(=N\Nc1ccc(Cl)cc1)c1ccccc1 in the same way.
inactive

----------
- System: OVCAR-8
- experimental protocol: NCI tumour cell line growth inhibition, 48 h
Active and inactive are the calls of the source. No stated cut-off is given here; in the data, active = GI50 up to about 1.1 µM and inactive = higher.
Outcomes you can answer with include only these: label 1 = active, label 0 = inactive

Any idea what this test logged for COCOc1cc(OC)ccc1C=O ?
label 0

Consider next the molecule CCCN(CCC)C(=O)c1c(Cl)c2cccnc2n2c(C)cnc12 in the same way.
label 0

Consider next the molecule O=c1c2cc(I)ccc2nc(Sc2ncccc2[N+](=O)[O-])n1Cc1ccccc1 in the same way.
label 0

Consider next the molecule CCCCNc1c(CN)cnc2cc(Cl)ccc12 in the same way.
label 0

Consider next the molecule Cc1cc2c(cc1C)[n+]([O-])c(C(=O)C/C(=N/NC(=O)CC#N)C(=O)Nc1ccccc1C(F)(F)F)c(C)[n+]2[O-] in the same way.
label 0

Consider next the molecule c1ccc2c(c1)ccn1ccc3c4ccccc4nc-3c21 in the same way.
label 1

Consider next the molecule O=C(O)/C(=C/c1ccccc1[N+](=O)[O-])c1cccs1 in the same way.
label 0

Consider next the molecule COc1ccc(CC2c3cc(Oc4cc(CC5c6cc(OC)c(OC)cc6CCN5C)ccc4O)c(OC)cc3CCN2C)cc1 (stereo not drawn) in the same way.
label 0

Consider next the molecule CS/C(=N/C#N)NCCc1c[nH]c2ccccc12 in the same way.
label 0

Consider next the molecule CN(CCCCN1CCCC1)CCCN(C)C(=O)Cc1ccc(Cl)c(Cl)c1 in the same way.
label 0

Consider next the molecule O=C1CCC2(CC1CC[S+]([O-])c1ccccc1)OCCO2 (stereo not drawn) in the same way.
label 0

Consider next the molecule Cc1ccc2[nH]c3[nH]c(=O)[nH]c(=O)c3c2c1 in the same way.
label 0

Consider next the molecule CC1(C)OP(=O)(c2ccccc2)C=C1Sc1ccc([N+](=O)[O-])cc1[N+](=O)[O-] (stereo not drawn) in the same way.
label 0

Attribution: ChEMBL document CHEMBL1201862
